The measured values listed here are drawn from ChEMBL document CHEMBL3865800.

In this section, each of the compounds is paired with its reported ΔTm.
- Experiment: Binding affinity to 5'-FPu22T-3'-labelled c-myc G-quadruplex DNA (unknown origin) assessed as change in melting temperature by FRET assay
Attribute Measured: ΔTm

> print(dat)
                            compound.smiles  result.value
1  CCN(CC)CC(=O)Nc1ccc(Nc2nc(N(CC)CC)nc3ccccc23)cc1         10 °C
2  CCN(CC)CCOc1ccc(Nc2nc(N(CC)CC)nc3ccccc23)cc1        7.1 °C
3  Oc1ccccc1-c1nc(Nc2ccc(OCCN3CCCC3)cc2)c2ccccc2n1        1.6 °C
4  Oc1ccccc1-c1nc(Nc2ccc(OCCN3CCOCC3)cc2)c2ccccc2n1        0.7 °C
5  CCN(CC)CCC(=O)Nc1ccc(Nc2nc(N(CC)CC)nc3ccccc23)cc1       12.2 °C

====

- Experiment: Binding affinity to biotinylated double stranded DNA (unknown origin) after 240 secs by SPR assay
Attribute Measured: Kd

> print(dat)
                             compound.smiles  attribute.measured  result.value
 1  O=C(CCN1CCCCC1)Nc1ccc(Nc2nc(-c3ccccc3NC(=O)CCN3CCCCC3)nc3ccccc23)cc1                  Kd       > 10 µM
 2  CCN(CC)CCC(=O)Nc1cc(Cl)ccc1-c1nc(NCCCN(C)C)c2ccccc2n1                  Kd       9.18 µM
 3  CCN(CC)CCCCC(=O)Nc1ccc(Nc2nc(-c3ccccc3NC(=O)CCCCN(CC)CC)nc3ccccc23)cc1                  Kd       > 10 µM
 4  O=C(CN1CCCC1)Nc1ccc(Nc2nc(-c3ccccc3NC(=O)CN3CCCC3)nc3ccccc23)cc1                  Kd       > 10 µM
 5  CCN(CC)CCC(=O)Nc1ccc(Nc2nc(N(CC)CC)nc3ccccc23)cc1                  Kd       > 10 µM
 6  O=C(CCN1CCCC1)Nc1ccc(Nc2nc(-c3ccccc3NC(=O)CCN3CCCC3)nc3ccccc23)cc1                  Kd       > 10 µM
 7  CCN(CC)CCC(=O)Nc1ccc(Nc2nc(-c3ccccc3NC(=O)CCN(CC)CC)nc3ccccc23)cc1                  Kd       > 10 µM
 8  CN(C)CCCNCCC(=O)Nc1ccc(Nc2nc(-c3ccccc3NC(=O)CCNCCCN(C)C)nc3ccccc23)cc1                  Kd       5.89 µM
 9  CCN(CC)CCCC(=O)Nc1ccc(Nc2nc(-c3ccccc3NC(=O)CCCN(CC)CC)nc3ccccc23)cc1                  Kd       > 10 µM
10  CCN(CC)CCCNCCC(=O)Nc1ccc(Nc2nc(-c3ccccc3NC(=O)CCNCCCN(CC)CC)nc3ccccc23)cc1                  Kd       6.21 µM
11  CCN(CC)CC(=O)Nc1ccc(Nc2nc(N(CC)CC)nc3ccccc23)cc1                  Kd       > 10 µM
12  O=C(CCCN1CCCC1)Nc1ccc(Nc2nc(-c3ccccc3NC(=O)CCCN3CCCC3)nc3ccccc23)cc1                  Kd       > 10 µM
